TESTED ON: DLG4_3, P78352
Sequence (P78352 306-403): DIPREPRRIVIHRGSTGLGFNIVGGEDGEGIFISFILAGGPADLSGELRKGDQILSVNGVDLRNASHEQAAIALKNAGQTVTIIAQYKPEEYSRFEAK
PROTOCOL: holdup assay
Set-up: key: below the threshold = too weak to quantify, mostly under pKd 3.1 to 4
TEST SETTINGS: plain residues with an end cap or a label only (N-terminal biotin on a linker: ado-ado)
ATTRIBUTE MEASURED: pKd

Please review the following examples before continuing.
{"columns": ["BINDER", "pKd"],
 "data": [
  ["QPCFNKLFPL [LPXN, O60711]", "below the threshold"],
  ["EALLQMESVA [CAVIN3, Q969G5]", "below the threshold"],
  ["DDPSTAETVL [ABCA7, Q8IZY2]", "below the threshold"],
  ["QSLNRMEYIV [JAG1, P78504]", "below the threshold"],
  ["LPHGHSTTRV [NLGN4X, Q8N0W4]", 4.04]
]}

Field: pKd. Fill in for each record below.
1. PRISRSQSEL [CCDC134, Q9H6E4]
2. SAAKVLTSMC [GHRHR, Q02643]
3. AKPSRISTVV [IQSEC2, Q5JU85]
4. SGSLKLMTTV [DACT1, Q9NYF0]
5. HLRARKSEWV [GJD4, Q96KN9]
6. RRISSLESEV [GRIN2C, Q14957]
7. TKGPRGPTRV [SAPCD1, Q5SSQ6]
8. SKENVQETQI [LRRC4B, Q9NT99]

["below the threshold", "below the threshold", 4.18, 4.26, "below the threshold", 3.78, 4.59, "below the threshold"]
